# credit: paper PMC6727436

# Tested on: MCF-7 human breast adenocarcinoma cell line
# test-protocol: cells
# Type: cell-based
# assay-conditions: Homo sapiens, MCF7, 48 h, MCF-7, 48 hr treatment, alamarBlue; read-out: IC50 (µg/mL)±SD/Cell line MCF-7
value-kind: IC50

What value of measured IC50 is listed for C=C1CC[C@@H](O)C(C)(C)C1CC/C(C)=C/COc1ccc2ccc(=O)oc2c1 (stereo partly shown) [Farnesiferol B] ? < 50 µg/mL

IC50 lookup needed for CC1(C)CC[C@H]2C(C)(C)[C@H](O)CC[C@]2(C)[C@H]1COc1ccc2ccc(=O)oc2c1 [Samarcandin] , thanks. > 50 µg/mL

I'd like to know its IC50. The compound in question is C=C1CCC2C(C)(C)C(O)CCC2(C)C1COc1ccc2ccc(=O)oc2c1 (stereo not shown) [Gummosin] < 50 µg/mL

Which IC50 value belongs to COc1cccc2c1C(=O)c1c(O)c3c(c(O)c1C2=O)C[C@@](O)(C(=O)CO)C[C@@H]3O[C@H]1C[C@H](N)[C@H](O)[C@H](C)O1 [Doxorubicin, reference compound] ? 0.28 µg/mL

Suppose we examine the compound C=C1CC[C@@H]2C(C)(C)[C@H](O)CC[C@@]2(C)[C@H]1COc1ccc2ccc(=O)oc2c1 [Farnesiferol A] ; what IC50 value has been reported? > 50 µg/mL

Recorded IC50 for CC(C)=CCC/C(C)=C/CC/C(C)=C/COc1ccc2ccc(=O)oc2c1 [Umbelliprenin] , please? > 50 µg/mL

Look up IC50: C/C(=C\COc1ccc2ccc(=O)oc2c1)CC[C@@H]1C(C)(C)[C@H]2CC[C@]1(C)O2 [Farnesiferol C] < 50 µg/mL
